# System: SW-620
# protocolDescription: NCI tumour cell line growth inhibition, 48 h
Activity calls are given as the source filed them. Cut-off read from the data, not from the text of the source: active = GI50 up to about 1.1 µM and inactive = higher.
// one of active, inactive, no free text

Q. For CC12CC3CC(C1)CC(N=[N+]=[N-])(C3)C2 , which call appears in the assay record?
A. inactive

Q. For CC1(C)NC(C)(C)/C(=N\O)C(=NO)/C1=N/O , which call appears in the assay record?
A. inactive

Q. For CCN(CC)c1ccc(C(=C2C=CC(=[N+](CC)CC)C=C2)c2ccc(N(CC)CC)cc2)cc1 , which call appears in the assay record?
A. active

Q. For N#CC(C#N)=Cc1ccc(Oc2ccccc2)cc1 , which call appears in the assay record?
A. inactive

Q. For CN(C)Cc1ccc(C(C)(C)C)cc1-c1cc(C(C)(C)C)ccc1CN(C)C , which call appears in the assay record?
A. inactive

Q. For CC(=O)Nc1ccc(C(=O)NN2C(=O)C(Cl)C2c2cccc([N+](=O)[O-])c2)cc1 (stereo not given) , which call appears in the assay record?
A. inactive

Q. For O=[N+]([O-])C1C2C=CC(C2)[C@H]1c1ccc(Cl)cc1Cl (stereo not given in full) , which call appears in the assay record?
A. inactive

Q. For Oc1nc(-c2ccc3ccccc3c2)nc2ccccc12 , which call appears in the assay record?
A. inactive

Q. For COc1ccc(C2=C(N)c3c(Cl)cccc3C2=O)cc1 , which call appears in the assay record?
A. inactive

Q. For CC1=C(C(=O)CC(=O)C(=O)Nc2cccc(Cl)c2C)Sc2ccccc2N1 , which call appears in the assay record?
A. inactive

Q. For CN1Cc2cc3c(cc2-c2ccccc21)OCO3 , which call appears in the assay record?
A. inactive

Q. For CCOC(=O)CSC(=O)NCCCl , which call appears in the assay record?
A. inactive

Q. For O=[N+]([O-])c1ccc(C(Cl)C(Cl)c2ccc(C(Cl)C(Cl)c3ccc([N+](=O)[O-])cc3[N+](=O)[O-])cc2)c([N+](=O)[O-])c1 (stereo not given) , which call appears in the assay record?
A. active

Q. For N=C(N)N/N=C\c1c(-c2cccc([N+](=O)[O-])c2)nc2sc(Cl)cn12 , which call appears in the assay record?
A. inactive

Q. For COc1cc2nc(-c3cccs3)oc(=O)c2cc1OC , which call appears in the assay record?
A. inactive

Q. For C/C(=N/NC(=S)Nc1ccc([N+](=O)[O-])cc1)c1cccc(/C(C)=N\NC(=S)Nc2ccc([N+](=O)[O-])cc2)n1 , which call appears in the assay record?
A. active

Q. For CCCCOC(C)(C)/C=C/C(O)[C@](C)(O)[C@H]1[C@H](O)C[C@@]2(C)[C@@H]3CCc4c(cc(OC5OC(CO)C(O)C(O)C5O)c(O)c4C)C3(C)C(=O)C[C@]12C (stereo not given in full) , which call appears in the assay record?
A. inactive

Q. For Clc1ccc(OCc2nnc3sc(-c4ccc(-c5ccc(Cl)cc5Cl)o4)nn23)c(Cl)c1 , which call appears in the assay record?
A. inactive

Q. For COc1cc(C/C=C/c2ccccc2)c(OC)cc1O [VIOLASTYRENE] , which call appears in the assay record?
A. inactive

Q. For COC(=O)C1=Cc2c(OC)cc(OC)c(OC)c2[C@H](c2cc(OC)c(OC)cc2OC)C1C(=O)OC (stereo not given in full) , which call appears in the assay record?
A. inactive
